Kindly supply the reported cytotoxicity at 70.5 h values for the records listed here.
# assay notes: Human HepG2 cell viability assay in 384 well format
# Type: toxicity, cell-based
# Set-up: dose 125 nL, time 70.5 hour; concentration not given beside the values
# condition context: HepG2 cells, read-out: Inhibition
Reply numerically in %, unit not repeated.

So for `CC(=O)c1cn(CCC(=O)NCCC(=O)O)c2ccccc12` , the logged cytotoxicity at 70.5 h turned out to be -12.4

So for `COCCN1CCOCC12CCN(C(=O)c1ccncc1)CC2` , the logged cytotoxicity at 70.5 h turned out to be -9.1

So for `COCCN(C)c1nc(-c2ccncc2)nc2c1CCN(C(C)=O)C2` , the logged cytotoxicity at 70.5 h turned out to be -7.41

So for `O=C(c1cc(F)ccc1F)C1CCN(C(=O)c2ccco2)CC1` , the logged cytotoxicity at 70.5 h turned out to be -3.7

So for Cc1cnc(N2CCC3(CCC(C(=O)NC(C)C)OC3)CC2)nc1 (centres undefined) , the logged cytotoxicity at 70.5 h turned out to be -2.25

So for `CC(C)(C)c1ccc(C2(C(=O)NCCS(N)(=O)=O)CC2)cc1` , the logged cytotoxicity at 70.5 h turned out to be -9.31

So for `CN(Cc1ccco1)C(=O)C1=NN(C)C(=O)CC1` , the logged cytotoxicity at 70.5 h turned out to be -3.82

So for CC(C#N)CNS(=O)(=O)c1ccc(F)c(Br)c1 (centres undefined) , the logged cytotoxicity at 70.5 h turned out to be -7.42

So for COc1ccc(C2CCCN2Cc2nc3c(cnn3C)c(=O)[nH]2)cc1 (centres undefined) , the logged cytotoxicity at 70.5 h turned out to be -8.35

So for `COC(=O)c1ccc(CNC(=O)Nc2ccc(=O)n(C)c2)cc1` , the logged cytotoxicity at 70.5 h turned out to be -2.19

So for Cc1ccccc1CN(C)C(=O)CN1CCCC(Cn2cncn2)C1 (centres undefined) , the logged cytotoxicity at 70.5 h turned out to be -6.64

So for CCCc1c(C2CCOC(C)(C)C2)nc(N)c(C#N)c1-c1cnn(C)c1 (centres undefined) , the logged cytotoxicity at 70.5 h turned out to be -2.75

So for CCOCC(=O)NC(C)c1cc(C)ccc1C (centres undefined) , the logged cytotoxicity at 70.5 h turned out to be 12.7

So for CCc1ccc(CN(C)C(=O)C2CC(=O)N(c3cccc(O)c3)C2)nc1 (centres undefined) , the logged cytotoxicity at 70.5 h turned out to be -0.196

So for `NC1(CN2CCCCC2)CCCCC1` , the logged cytotoxicity at 70.5 h turned out to be -3.49

So for `CCN(CC)S(=O)(=O)c1cnccc1N1CCN(C(C)C)CC1` , the logged cytotoxicity at 70.5 h turned out to be 7.88

So for `COc1ccc(C2CCN(CCCC#N)CC2)cc1` , the logged cytotoxicity at 70.5 h turned out to be 27.7

So for CCN(C)S(=O)(=O)N1CCC(C(O)c2ccc(F)cc2)CC1 (centres undefined) , the logged cytotoxicity at 70.5 h turned out to be -2.3

So for Cc1ccc(N2CCCC3(CCN(C(=O)CC(F)(F)F)C3)C2)nn1 (centres undefined) , the logged cytotoxicity at 70.5 h turned out to be -10.2

So for `Cc1noc([C@H]2C[C@@H]3CCN(C(=O)C4CCOCC4)C[C@H]3O2)n1` , the logged cytotoxicity at 70.5 h turned out to be -1.73

So for CCc1c(C)nc2cc(C3CCN(Cc4ccccc4F)C3)nn2c1O (centres undefined) , the logged cytotoxicity at 70.5 h turned out to be -2.56

So for `COc1cccc(S(=O)(=O)NC(=O)COc2c(C)cccc2C)c1` , the logged cytotoxicity at 70.5 h turned out to be -9.64

So for `CC(C)C(=O)N1CCN(C(=O)c2cc(C(C)C)no2)[C@H]2CS(=O)(=O)C[C@H]21` , the logged cytotoxicity at 70.5 h turned out to be -0.523

So for `CNCc1cc(F)ccc1Oc1ccc(Cl)cc1` , the logged cytotoxicity at 70.5 h turned out to be 2.13

Data provenance is ChEMBL document CHEMBL3507680.
